Assay: RAM signaling pathway blockade in yeast – S. cerevisiae, Pdr1DBD-CYC8 efflux-inhibited sensitized strain, primary screen (AID 1298);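 further: 0% = DMSO untreated cells without growth and 100% = 10 µM 1-NA-PP1 full growth; higher means more yeast growth rescued from 5-FOA killing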
Details: S. cerevisiae cbk1-as DSE1-URA3 strain, 5-FOA growth OD615, 2 d; at 50 µM; active compounds read high
The source made the active and inactive calls.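 How the source made its calls: active means RAM network inhibition above 8.4% in each of two replicates, 3 SD over the compound average; inconclusive means above 8.4% inhibition in only one replicate; inactive means 8.4% inhibition or less in each replicate.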
RAM network inhibition by entry:
reportedProperty: RAM network inhibition

>>> print(df.to_string())
                                    molecule             result
 0  COc1ccc(C2CC(c3ccccc3C)n3nc(N)nc3N2)cc1 (centres undefined)   1.89% (inactive)
 1                O=C(CC1CCCCC1)NCCCN1CCOCC1   1.38% (inactive)
 2             O=C(Cn1cc2c(n1)CCCC2)N1CCOCC1   6.94% (inactive)
 3  CC1(C)CC2CC(C)(CN2C(=O)c2cc(-c3ccccc3O)on2)C1 (centres undefined)   6.15% (inactive)
 4  CCOC(=O)C1CCN(S(=O)(=O)c2ccc(OCC)cc2)CC1   6.62% (inactive)
 5  CCOc1ccccc1NC(=O)Cn1cnc2c(nnn2-c2cccc(OC)c2)c1=O   4.89% (inactive)
 6  CCOC(=O)N1CCN(C(=O)c2ccc3c(=O)n(CCC4=CCCCC4)c(=S)[nH]c3c2)CC1   4.35% (inactive)
 7     CCOC(=O)N1CCN(C(=O)Cn2ncc3ccccc32)CC1   2.51% (inactive)
 8            CCCCCn1c(CNC(=O)CCC)nc2ccccc21   0.64% (inactive)
 9  COc1ccc(C(=O)N2CCN(c3ccc(C)c(C)c3)CC2)cc1OC   2.55% (inactive)
10       O=C(CCSc1ccccc1)Nc1nnc(-c2ccccc2)o1    2.5% (inactive)
11                  C=CCn1c(SCCCC)nc(O)cc1=O  -0.21% (inactive)
12  CC1CC(C)CN(S(=O)(=O)c2ccc(NC(=O)C3COc4ccccc4O3)cc2)C1 (centres undefined)   2.76% (inactive)
13  Cc1ccc(-c2nc(CS(=O)CC(=O)NC3CCCC3)c(C)o2)cc1 (centres undefined)   5.29% (inactive)
14           COc1ccc(C)cc1S(=O)(=O)NC1CCCCC1   6.79% (inactive)
15              Cc1ccc(-n2nc3ccc(N)cc3n2)cc1   2.79% (inactive)
16         Cc1cc(C(=O)Nc2nnc(C3CCCCC3)s2)cs1   9.03% (inactive)
17      Cc1cc2cc(CNS(=O)(=O)c3ccccc3)ccc2n1C   2.49% (inactive)
18  CCc1cc2c(=O)c(Oc3ccccc3F)c(C)oc2c(CN(C)C)c1O   6.03% (inactive)
19  NS(=O)(=O)c1ccc(CNC(=O)NC2(c3ccccc3)CC2)cc1   3.05% (inactive)
20  COc1cccc(-n2c(Cc3cc(=O)[nH]c(=O)[nH]3)nnc2SCc2cccnc2)c1    0.9% (inactive)
21    O=C(CSC1=NS(=O)(=O)c2ccccc21)Nc1ccccc1  -0.47% (inactive)
22  CCOC(=O)c1ccc(N2C(=O)C3ON(c4ccccc4)C(c4ccco4)C3C2=O)cc1 (centres undefined)   4.07% (inactive)
23  Cc1cc2cc(CCNC(=O)c3c(-c4ccccc4Cl)noc3C)c(=O)[nH]c2cc1C   3.43% (inactive)
